This collection of values is drawn from patent US7138361B2.

# Test system: corn (Zea mays)
# testSummary: Test C postemergence
# Assay type: in vivo
# measurementParameters: Rate 500 g/ha, scale 0 to 100 (0 no effect, 100 complete control)
# Description: […]
Please go through the items and note down their Plant response rating, Corn.
Lab note: record the figure alone, no unit after it.

Which Plant response rating, Corn reading was recorded for the molecule CCC(CC)c1ccn(C2OCN(c3cccc(OC(F)F)c3)C2=O)n1 (centres unmarked) ? 30

Which Plant response rating, Corn reading was recorded for the molecule CCC(C)c1ccn(C2CCN(c3ccc(Br)c(OC)c3)C2=O)n1 (centres unmarked) ? 20

Which Plant response rating, Corn reading was recorded for the molecule COc1cc(N2CCC(n3ccc(C(C)C)n3)C2=O)ccc1Br (centres unmarked) ? 0

Which Plant response rating, Corn reading was recorded for the molecule COc1cc(N2CCC(n3ccc(C(C)(C)C)n3)C2=O)ccc1Cl (centres unmarked) ? 10

Which Plant response rating, Corn reading was recorded for the molecule CCCOc1cc(N2CCC(n3ccc(C(C)(C)C)n3)C2=O)ccc1C (centres unmarked) ? 0

###

# System: woolly cupgrass (Eriochloa villosa)
# testSummary: Test C postemergence
# Type: in vivo
# measurementParameters: Rate 500 g/ha, scale 0 to 100 (0 no effect, 100 complete control)
# Text: […]
reportedMetric: Plant response rating, Cupgrass, Woolly

Which Plant response rating, Cupgrass, Woolly reading was recorded for the compound COc1cc(N2CCC(n3ccc(C(C)C)n3)C2=O)ccc1C (stereo not shown) ? 70

Which Plant response rating, Cupgrass, Woolly reading was recorded for the compound CCCC(C)c1ccn(C2CCN(c3ccc(Cl)c(OC)c3)C2=O)n1 (stereo not shown) ? 60

Which Plant response rating, Cupgrass, Woolly reading was recorded for the compound CCCOc1cc(N2CCC(n3ccc(C(C)(C)C)n3)C2=O)ccc1C (stereo not shown) ? 0

Which Plant response rating, Cupgrass, Woolly reading was recorded for the compound COc1cc(N2CCC(n3ccc(C(C)(C)C)n3)C2=O)ccc1Br (stereo not shown) ? 70

###

# Tested on: woolly cupgrass (Eriochloa villosa)
# testSummary: Test C preemergence
# Assay type: in vivo
# measurementParameters: Rate 62 g/ha; scale 0 to 100, 0 no effect, 100 complete control
Response field label: string, one of Y (Plant response rating, Cupgrass, Woolly strictly below 50) or N.

API: query returns whether the compound falls strictly under 50 in Plant response rating, Cupgrass, Woolly. Query: O=C1C(n2ccc(C3CC3)n2)CCN1c1cccc(C(F)(F)F)c1 (centres unmarked) Y

API: query returns whether the compound falls strictly under 50 in Plant response rating, Cupgrass, Woolly. Query: CC(C)Oc1cccc(N2CCC(n3ccc(C(C)(C)C)n3)C2=O)c1 (centres unmarked) N

API: query returns whether the compound falls strictly under 50 in Plant response rating, Cupgrass, Woolly. Query: O=C1C(n2ccc(C3CCCCC3)n2)SCN1c1cccc(OC(F)(F)F)c1 (centres unmarked) Y

API: query returns whether the compound falls strictly under 50 in Plant response rating, Cupgrass, Woolly. Query: CCC(C)c1ccn(C2SCN(c3cccc(OC(F)(F)F)c3)C2=O)n1 (centres unmarked) [Compound 32] N

###

# System: soybean (Glycine max)
# testSummary: Test C preemergence
# Type: in vivo
# measurementParameters: Rate 125 g/ha; scale 0 to 100, 0 no effect, 100 complete control
Please go through the items and note down their Plant response rating, Soybean.
Lab note: record the figure alone, no unit after it.

Which Plant response rating, Soybean reading was recorded for the compound COc1cc(N2CCC(n3ccc(C(C)(C)C)n3)C2=O)ccc1Cl (centres unmarked) [Compound 117] ? 100

Which Plant response rating, Soybean reading was recorded for the compound CC(C)(C)c1ccn(C2CCN(c3cccc(OC(F)F)c3)C2=O)n1 (centres unmarked) [Compound 76] ? 0

Which Plant response rating, Soybean reading was recorded for the compound CC(C)OC(=O)c1cccc(N2CCC(n3ccc(C(C)(C)C)n3)C2=O)c1 (centres unmarked) [Compound 124] ? 0

Which Plant response rating, Soybean reading was recorded for the compound CCC(C)c1ccn(C2CCN(c3ccc(Br)c(OC)c3)C2=O)n1 (centres unmarked) [Compound 142] ? 70

Which Plant response rating, Soybean reading was recorded for the compound CCOc1cc(N2CCC(n3ccc(C(C)(C)C)n3)C2=O)ccc1C (centres unmarked) [Compound 106] ? 100

Which Plant response rating, Soybean reading was recorded for the compound COc1cc(N2CCC(n3ccc(C(C)C)n3)C2=O)ccc1Cl (centres unmarked) [Compound 120] ? 70

Which Plant response rating, Soybean reading was recorded for the compound CCC(C)c1ccn(C2OCN(c3cccc(OC(F)F)c3)C2=O)n1 (centres unmarked) [Compound 134] ? 0

Which Plant response rating, Soybean reading was recorded for the compound CCC(CC)c1ccn(C2CCN(c3ccc(Cl)c(OC)c3)C2=O)n1 (centres unmarked) [Compound 118] ? 60

Which Plant response rating, Soybean reading was recorded for the compound CCC(CC)c1ccn(C2OCN(c3cccc(OC(F)F)c3)C2=O)n1 (centres unmarked) [Compound 131] ? 0

Which Plant response rating, Soybean reading was recorded for the compound CCCC(C)c1ccn(C2CCN(c3ccc(Cl)c(OC)c3)C2=O)n1 (centres unmarked) [Compound 121] ? 60

Which Plant response rating, Soybean reading was recorded for the compound CC(C)(C)c1ccn(C2CCN(c3cccc([S+]([O-])C(F)(F)F)c3)C2=O)n1 (centres unmarked) [Compound 101] ? 0
